Assay: Pharmacokinetic evaluation following a single oral and intravenous administration
Type: in vivo, CD1 mouse
Settings: CD1, mouse, plasma, po, 5 mg/kg, Table 11, PO Dose: 5 mg/kg, 1 h, Mouse 4; read-out: Concentration
measure: concentration at 1 h (ng/mL)
Lab book: enter the figure in ng/mL, no units written.

Exercise: Any idea what concentration at 1 h was measured for CC(=O)N[C@@H](Cc1ccc(CN(C)C)cc1)c1nnc(-c2cccc(OC(F)(F)F)c2)s1 [Compound 42320] ?
Key: 193

###

Assay: Pharmacokinetic evaluation following a single oral and intravenous administration
Format: in vivo, CD1 mouse
Conditions: CD1, mouse, plasma, po, 5 mg/kg, Table 5, PO Dose: 5 mg/kg, 1 h, Mouse 5; read-out: Concentration
measure: concentration at 1 h (ng/mL)
Lab book: enter the figure in ng/mL, no units written.

Exercise: Any idea what concentration at 1 h was measured for CNCc1ccc(C[C@H](NC(C)=O)c2nnc(-c3cccc(OC(F)(F)F)c3)s2)cc1 ?
Key: 129

###

Test: Pharmacokinetic evaluation following a single oral and intravenous administration
Format: in vivo, CD1 mouse
Details: CD1, mouse, plasma, iv, 1 mg/kg, Table 4, IV Dose: 1 mg/kg, Mouse 3; read-out: AUCInf
measure: AUC(0-inf) (ng·h/mL)
Lab book: enter the figure in ng·h/mL, no units written.

Exercise: Any idea what AUC(0-inf) was measured for CNCc1ccc(C[C@H](NC(C)=O)c2nnc(-c3cccc(OC(F)(F)F)c3)s2)cc1 [Compound 42140] ?
Key: 445

###

Assay: Pharmacokinetic evaluation following a single oral and intravenous administration
Type: in vivo, CD1 mouse
Details: CD1, mouse, plasma, iv, 1 mg/kg, Table 9, IV Dose: 1 mg/kg, 4 h, mean; read-out: Concentration, Mean
measure: concentration at 4 h (ng/mL)
Lab book: enter the figure in ng/mL, no units written.

Exercise: Any idea what concentration at 4 h was measured for CC(=O)N[C@@H](Cc1ccc(CN(C)C)cc1)c1nnc(-c2cccc(OC(F)(F)F)c2)s1 [Compound 42320] ?
Key: 11.5

###

Experiment: Pharmacokinetic evaluation following a single oral and intravenous administration
Type: in vivo, CD1 mouse
Conditions: CD1, mouse, plasma, iv, 1 mg/kg, Table 3, IV Dose: 1 mg/kg, 4 h, mean; read-out: Concentration, Mean
measure: concentration at 4 h (ng/mL)
Lab book: enter the figure in ng/mL, no units written.

Exercise: Any idea what concentration at 4 h was measured for CNCc1ccc(C[C@H](NC(C)=O)c2nnc(-c3cccc(OC(F)(F)F)c3)s2)cc1 ?
Key: 22.7

###

Assay: Pharmacokinetic evaluation following a single oral and intravenous administration
Type: in vivo, CD1 mouse
Details: CD1, mouse, plasma, po, 5 mg/kg, Table 6, PO Dose: 5 mg/kg, Mouse 6; read-out: T1/2 (converted)
measure: half-life
Output should be the measured figure followed by the unit it is expressed in.

Exercise: Any idea what half-life was measured for CNCc1ccc(C[C@H](NC(C)=O)c2nnc(-c3cccc(OC(F)(F)F)c3)s2)cc1 ?
Key: 9.71 h

###

Assay: Pharmacokinetic evaluation following a single oral and intravenous administration
Type: in vivo, CD1 mouse
Conditions: CD1, mouse, plasma, po, 5 mg/kg, Table 6, PO Dose: 5 mg/kg, Mouse 4; read-out: Cmax
measure: Cmax (ng/mL)
Lab book: enter the figure in ng/mL, no units written.

Exercise: Any idea what Cmax was measured for CNCc1ccc(C[C@H](NC(C)=O)c2nnc(-c3cccc(OC(F)(F)F)c3)s2)cc1 ?
Key: 139

Attribution: patent US11033535B2
